meta.source: ChEMBL document CHEMBL5236635

TARGET_SYSTEM: Cytochrome P450 1A2 (Homo sapiens, UniProt P05177)
Sequence (P05177 whole entry): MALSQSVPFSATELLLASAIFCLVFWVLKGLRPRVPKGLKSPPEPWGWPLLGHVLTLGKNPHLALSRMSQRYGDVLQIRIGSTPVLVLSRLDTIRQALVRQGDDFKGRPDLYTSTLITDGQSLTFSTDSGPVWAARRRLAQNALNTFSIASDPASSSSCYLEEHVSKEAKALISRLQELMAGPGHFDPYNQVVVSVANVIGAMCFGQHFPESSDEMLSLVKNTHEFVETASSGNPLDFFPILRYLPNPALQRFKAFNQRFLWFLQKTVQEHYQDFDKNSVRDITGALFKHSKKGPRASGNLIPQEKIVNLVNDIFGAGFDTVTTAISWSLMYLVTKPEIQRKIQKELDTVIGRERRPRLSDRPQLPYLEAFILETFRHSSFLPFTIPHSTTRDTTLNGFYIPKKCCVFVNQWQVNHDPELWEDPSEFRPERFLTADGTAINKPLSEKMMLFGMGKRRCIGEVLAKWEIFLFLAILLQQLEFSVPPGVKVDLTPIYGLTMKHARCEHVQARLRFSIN
PROCEDURE_TEXT: Inhibition of recombinant human CYP1A2 using 7-ethyl-0-resorufin as substrate incubated for 30 mins in presence of NADPH by EROD assay
pIC50: −log10 of the molar value.
REPORTED_PROPERTY: pIC50

In the examples that follow, each entry is paired with its recorded pIC50.
[
  {
    "SMILES": "COc1cccc(-c2csc(-c3csc(Nc4ccc(N5CCOCC5)cc4)n3)n2)c1",
    "TARGET_SYSTEM": "Cytochrome P450 1A2 (Homo sapiens, UniProt P05177)",
    "TEST_VALUE": 5.33
  },
  {
    "SMILES": "CCc1sc(-c2csc(Nc3cc(Cl)cc(Cl)c3)n2)nc1-c1ccccc1",
    "TARGET_SYSTEM": "Cytochrome P450 1A2 (Homo sapiens, UniProt P05177)",
    "TEST_VALUE": 6.64
  }
]

[a] COc1cc(Nc2nc(-c3nc(-c4ccccc4)c(C)s3)cs2)cc(OC)c1
[b] COc1cc(Nc2nc(-c3nccs3)cs2)cc(OC)c1
Prompt: Which of these two has the smaller recorded pIC50: a or b ? Write down the label attached to your selection.
Completion: a
